// values below are reported kon
Target: T1, Cynomolgus monkey CD98 ECD with C-terminal His-tag (cynomolgus monkey, UniProt P08195 105-529 (human entry))
T1 construct: also called cyCD98 ECD; recombinant cynomolgus monkey CD98 extracellular domain
T1 chain: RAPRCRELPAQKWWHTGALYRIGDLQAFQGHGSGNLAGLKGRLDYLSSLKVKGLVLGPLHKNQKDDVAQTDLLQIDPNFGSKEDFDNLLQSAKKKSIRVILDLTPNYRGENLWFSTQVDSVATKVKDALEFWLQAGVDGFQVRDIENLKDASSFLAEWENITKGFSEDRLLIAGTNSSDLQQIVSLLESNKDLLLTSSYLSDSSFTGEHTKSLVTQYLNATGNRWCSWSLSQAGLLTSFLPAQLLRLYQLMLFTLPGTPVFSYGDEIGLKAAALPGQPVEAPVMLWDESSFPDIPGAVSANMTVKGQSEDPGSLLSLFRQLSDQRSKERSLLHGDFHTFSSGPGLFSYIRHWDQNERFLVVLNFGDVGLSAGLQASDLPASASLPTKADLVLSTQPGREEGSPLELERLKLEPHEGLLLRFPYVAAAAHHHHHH
Assay: SPR Biacore, anti-Fc capture of mAb, CD98 ECD analyte
Reply numerically in M⁻¹ s⁻¹, unit not repeated.

Some solved cases for reference:
INSERT INTO measurements (binder, assay_readout, measure_unit, numeric_readout) VALUES
  ('Anti-CD98 rat hybridoma antibody Ab10 (antibody, V domains shown) VH: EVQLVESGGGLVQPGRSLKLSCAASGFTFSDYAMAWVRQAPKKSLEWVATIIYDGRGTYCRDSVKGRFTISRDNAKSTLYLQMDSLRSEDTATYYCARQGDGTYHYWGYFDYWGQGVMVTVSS VL: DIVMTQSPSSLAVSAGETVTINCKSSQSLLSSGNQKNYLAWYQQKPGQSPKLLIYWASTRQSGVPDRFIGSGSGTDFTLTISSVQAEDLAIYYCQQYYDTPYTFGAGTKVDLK', 'kon', 'M⁻¹ s⁻¹', 62000),
  ('Anti-CD98 murine hybridoma antibody Ab5 (antibody, V domains shown) VH: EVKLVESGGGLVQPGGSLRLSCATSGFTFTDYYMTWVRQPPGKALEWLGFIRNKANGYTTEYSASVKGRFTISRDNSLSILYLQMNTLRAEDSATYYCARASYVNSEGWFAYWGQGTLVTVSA VL: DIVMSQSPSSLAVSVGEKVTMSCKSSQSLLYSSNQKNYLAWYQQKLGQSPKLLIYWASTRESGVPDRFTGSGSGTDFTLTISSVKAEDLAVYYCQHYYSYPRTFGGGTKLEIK', 'kon', 'M⁻¹ s⁻¹', 21000);

Q: Note down kon recorded for Anti-CD98 rat hybridoma antibody Ab15 (antibody, V domains shown) VH: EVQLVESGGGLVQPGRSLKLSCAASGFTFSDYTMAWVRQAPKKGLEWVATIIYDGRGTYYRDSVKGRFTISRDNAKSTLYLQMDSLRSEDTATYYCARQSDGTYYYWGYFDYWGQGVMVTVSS VL: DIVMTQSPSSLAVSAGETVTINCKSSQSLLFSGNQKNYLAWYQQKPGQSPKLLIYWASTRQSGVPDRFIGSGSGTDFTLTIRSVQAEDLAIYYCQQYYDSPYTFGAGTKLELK
Ans: 29000
